testName: AUC in CD1 mouse at 5 mg/kg, po
Type: ADME, organism-based
Design: dose 5 mg/kg
testConditions: in vivo
recordedMetric: AUC (µM·h)
Express it in µM·h; write the number only.

What value of AUC has been reported for the following compound? Cc1c(-c2ccc(N3CCc4cccc(C(=O)Nc5nc6ccccc6s5)c4C3)nc2C(=O)O)cnn1CC12CC3CC(CC(C3)C1)C2
3.81

---

testName: Oral bioavailability in CD1 mouse at 5 mg/kg
Format: ADME, organism-based
testConditions: in vivo
recordedMetric: bioavailability
Answer as a quantity: numeral, then unit.

What value of bioavailability has been reported for the following compound? Cc1c(-c2ccc(N3CCc4cccc(C(=O)Nc5nc6ccccc6s5)c4C3)nc2C(=O)O)cnn1CC12CC3CC(CC(C3)C1)C2
11%
